TESTED_ON: muscarinic receptors ([^3 H]-OXO-M binding)
EXPERIMENTAL_PROTOCOL: Inhibition of [^3 H]-oxotremorine-M ([^3 H]-OXO-M) binding, rat cerebral cortex
RUN_PARAMETERS: [^3 H]-OXO-M 1.88 nM, 37° C., geometric mean, n = 2
PROPERTY_MEASURED: IC50 (nM)
Kindly answer with a numeric value in nM, unit omitted.

Lookup: Under muscarinic receptors ([^3 H]-OXO-M binding): IC50 value of CO/N=C(\C#N)[C@H]1C[N+]2([O-])CCC1CC2 [Compound X] ?
Found: 2860

---

TESTED_ON: muscarinic receptors ([^3 H]-QNB binding)
RUN_PARAMETERS: rat cerebral cortex; [^3 H]-QNB 0.27 nM; geometric mean; n = 2
PROPERTY_MEASURED: pIC50
Please treat pIC50 as minus the base-10 logarithm of the molar concentration.

Lookup: So what's the measured pIC50 for this one? CO/N=C(\C#N)[C@H]1C[N+]2([O-])CCC1CC2 [Compound X]
Found: 4.16
